# Test system: NSA mice
# EXPERIMENT DESCRIPTION: Hypothermia study (block of CP 55,940-induced hypothermia)
# Type: in vivo
# Design: unit not given here
# TEST CONTEXT: 3 mg/kg

COMPOUND: O=C(NC1CCCCC1)c1ccc2c(c1)N=C(c1ccc(F)cc1)c1ccccc1S2 [drawing 1580]
Hypothermia 3 mg/kg: 82
//
COMPOUND: O=C(NC1CCC(F)(F)CC1)c1ccc2c(c1)N=C(c1ccc(Cl)s1)c1ccccc1S2 [drawing 1596]
Hypothermia 3 mg/kg: 51
//
COMPOUND: CCCCNC(=O)c1ccc2c(c1)N=C(c1ccc(Cl)cc1)c1ccc(Cl)cc1S2 [drawing 1617]
Hypothermia 3 mg/kg: 30
//
COMPOUND: O=C(NCc1cccc(Cl)c1)c1ccc2c(c1)N=C(c1ccc(Cl)cc1)c1cc(F)ccc1S2 [drawing 1583]
Hypothermia 3 mg/kg: −4
//
COMPOUND: O=C(NCc1ccccn1)c1ccc2c(c1)N=C(c1ccc(Cl)cc1)c1ccccc1S2 [drawing 1637]
Hypothermia 3 mg/kg: 42
//
COMPOUND: CCCCNC(=O)C1=C/C=C/Sc2cc(F)ccc2/C(c2ccc(Cl)cn2)=N\C=C\1
Hypothermia 3 mg/kg: 4
//
COMPOUND: CC(C)CNC(=O)c1ccc2c(c1)N=C(c1ccc(F)cc1)c1ccccc1S2 [drawing 1636]
Hypothermia 3 mg/kg: 53
//
COMPOUND: CCCCNC(=O)c1ccc2c(c1)N=C(c1ccc(Cl)s1)c1cc(F)ccc1S2 [drawing 1601]
Hypothermia 3 mg/kg: 17

* * *

# TESTED TARGET: CB1 (mutant) (Homo sapiens)
# EXPERIMENT DESCRIPTION: R-SAT functional receptor assay, CB1 (mutant, truncated after amino acid 417)
# Assay type: cell-based
# TEST CONTEXT: Appendix A; R-SAT CB1; receptor form not stated; relative to SR141716 (100%); read-out: % Inhibition
Emax reference

COMPOUND: O=C(NCc1ccccc1)c1ccc2c(c1)N=C(c1cccc(Cl)c1)c1ccccc1S2 [drawing 717]
TESTED TARGET: CB1 (mutant) (Homo sapiens)
RESULT UNIT: %
Emax: 106
--
COMPOUND: O=C(NN1CCCCCC1)c1ccc2c(c1)N=C(c1ccc(Cl)cc1)c1ccccc1S2 [drawing 624]
TESTED TARGET: CB1 (mutant) (Homo sapiens)
RESULT UNIT: %
Emax: 103
--
COMPOUND: CCCCNC(=O)c1ccc2c(c1)N=C(c1ccc(Cl)s1)c1ccc(Cl)cc1S2 [drawing 1109]
TESTED TARGET: CB1 (mutant) (Homo sapiens)
RESULT UNIT: %
Emax: 104
--
COMPOUND: O=C(NN1CCCCC1)c1ccc2c(c1)N=C(c1ccccc1)c1ccccc1S2 [drawing 897]
TESTED TARGET: CB1 (mutant) (Homo sapiens)
RESULT UNIT: %
Emax: 115

* * *

# TESTED TARGET: native CB1 receptors (Rattus norvegicus)
# Sequence (P20272 whole entry): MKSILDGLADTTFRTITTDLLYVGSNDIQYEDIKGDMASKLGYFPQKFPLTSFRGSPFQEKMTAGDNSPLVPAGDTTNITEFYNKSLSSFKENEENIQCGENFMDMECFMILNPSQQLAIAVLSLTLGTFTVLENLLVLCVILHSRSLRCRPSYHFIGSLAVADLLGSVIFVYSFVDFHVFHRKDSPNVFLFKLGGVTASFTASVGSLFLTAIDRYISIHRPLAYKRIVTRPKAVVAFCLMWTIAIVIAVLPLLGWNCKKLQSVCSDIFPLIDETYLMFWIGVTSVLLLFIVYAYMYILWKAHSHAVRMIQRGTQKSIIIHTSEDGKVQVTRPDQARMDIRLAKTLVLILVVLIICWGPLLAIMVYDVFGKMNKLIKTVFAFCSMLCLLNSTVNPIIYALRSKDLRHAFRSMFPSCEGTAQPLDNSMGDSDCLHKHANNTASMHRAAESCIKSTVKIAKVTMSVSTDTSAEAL
# EXPERIMENT DESCRIPTION: CB1 receptor rat binding assay ([3H]SR141716A, rat brain membranes)
# TEST CONTEXT: rat brain membranes, [3H]SR141716A; read-out: Binding rat pKi (converted)

COMPOUND: O=C(NCCc1ccccc1)c1ccc2c(c1)N=C(c1cccc(Cl)c1)c1ccccc1S2 [drawing 1322]
Ki / µM: 0.00316
//
COMPOUND: O=C(NCCc1ccncc1)c1ccc2c(c1)N=C(c1ccc(Cl)cc1)c1ccccc1S2 [drawing 1339]
Ki / µM: 0.0251
//
COMPOUND: CC(NC(=O)c1ccc2c(c1)N=C(c1ccc(F)cc1)c1ccccc1S2)c1ccccc1 (stereo not shown) [drawing 1471]
Ki / µM: 0.00794
//
COMPOUND: CCCCNC(=O)c1ccc2c(c1)N=C(c1ccc(Cl)s1)c1ccc(F)cc1S2 [drawing 1267]
Ki / µM: 0.02

* * *

# TESTED TARGET: CB1 (mutant) (Homo sapiens)
# EXPERIMENT DESCRIPTION: R-SAT functional receptor assay, CB1 (mutant, truncated after amino acid 417)
# Format: cell-based
# TEST CONTEXT: Appendix A; R-SAT CB1; receptor form (mutant or wild-type) not stated; read-out: pIC50 (converted)
Listed here: items and their measured IC50.

COMPOUND: CON(C)C(=O)c1ccc2c(c1)N=C(c1sccc1C)c1ccccc1S2
IC50, nM: 794
//
COMPOUND: CCCCNS(=O)(=O)c1ccc2c(c1)N=C(c1ccc(Cl)cc1)c1ccccc1S2 [drawing 875]
IC50, nM: 15.8
//
COMPOUND: CCCC1=Nc2cc(C(=O)NCCc3ccccc3)ccc2Sc2ccccc21
IC50, nM: 794
//
COMPOUND: O=C(NCc1ccccc1)c1ccc2c(c1)N=C(c1ccccc1)c1ccccc1S2 [drawing 755]
IC50, nM: 10
//
COMPOUND: CCCC1=Nc2cc(C(=O)NCCN3CCCC3)ccc2Sc2ccccc21
IC50, nM: 3160

* * *

# TESTED TARGET: CB1 (mutant) (Homo sapiens, UniProt P21554)
# Sequence (P21554 1-417, change not shown): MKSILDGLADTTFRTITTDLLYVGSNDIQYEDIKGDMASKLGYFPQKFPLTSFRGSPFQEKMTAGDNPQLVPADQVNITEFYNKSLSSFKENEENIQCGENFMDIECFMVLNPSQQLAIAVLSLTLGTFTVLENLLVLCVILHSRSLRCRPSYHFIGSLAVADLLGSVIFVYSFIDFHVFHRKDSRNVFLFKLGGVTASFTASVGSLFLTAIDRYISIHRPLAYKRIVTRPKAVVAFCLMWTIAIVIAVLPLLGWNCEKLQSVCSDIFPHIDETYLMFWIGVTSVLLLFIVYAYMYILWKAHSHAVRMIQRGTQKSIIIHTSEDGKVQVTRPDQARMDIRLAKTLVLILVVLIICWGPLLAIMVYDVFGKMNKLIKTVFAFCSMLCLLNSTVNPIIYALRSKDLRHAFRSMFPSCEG
# EXPERIMENT DESCRIPTION: R-SAT functional receptor assay, CB1 (mutant, truncated after amino acid 417)
# Assay type: cell-based
# TEST CONTEXT: Appendix A; R-SAT CB1; receptor form (mutant or wild-type) not stated; read-out: pIC50 (converted)
RECORDED ENDPOINT: IC50

MOLECULE: O=C(NN1CCOCC1)c1ccc2c(c1)N=C(N1CCCCC1)c1ccccc1S2
OBSERVED: 794 nM

MOLECULE: O=C(NCc1ccc(F)cc1)c1ccc2c(c1)N=C(c1ccc(Cl)cc1)c1ccccc1[S+]2[O-] (centres unmarked) [drawing 1125]
OBSERVED: 39.8 nM

MOLECULE: COCCNC(=O)c1ccc2c(c1)N=C(c1ccc(Cl)cc1Cl)c1ccccc1S2
OBSERVED: 316 nM

MOLECULE: O=C(NC1CCCCC1)c1ccc2c(c1)N=C(c1cccc(F)c1)c1ccccc1S2 [drawing 941]
OBSERVED: 20 nM

MOLECULE: O=C(NCc1cccc(Cl)c1)c1ccc2c(c1)N=C(c1ccc(F)cc1)c1ccccc1S2(=O)=O [drawing 833]
OBSERVED: 12.6 nM

MOLECULE: Cc1ccc(CNC(=O)c2ccc3c(c2)N=C(c2sccc2C)c2ccccc2S3)o1 [drawing 953]
OBSERVED: 20 nM

MOLECULE: Cc1csc(CNC(=O)c2ccc3c(c2)N=C(c2ccc(F)cc2)c2ccccc2S3)c1 [drawing 732]
OBSERVED: 79.4 nM

MOLECULE: O=C(NCCc1ccc(Cl)cc1)c1ccc2c(c1)N=C(N1CCC(F)CC1)c1ccccc1S2 [drawing 1119]
OBSERVED: 39.8 nM

* * *

# TESTED TARGET: CB1 (mutant) (Homo sapiens, UniProt P21554)
# EXPERIMENT DESCRIPTION: R-SAT functional receptor assay, CB1 (mutant, truncated after amino acid 417)
# Assay type: cell-based
# TEST CONTEXT: Appendix A; R-SAT CB1; receptor form (mutant or wild-type) not stated; read-out: pIC50 (converted)
# YES = IC50 below 50 nM (exclusive); NO = IC50 at/above 50 nM

COMPOUND: O=C(NCc1ccco1)c1ccc2c(c1)N=C(c1ccccn1)c1ccccc1S2
LABEL CLASS: YES
--
COMPOUND: O=C(NNC(=O)c1ccc2c(c1)N=C(c1ccc(Cl)cc1)c1ccccc1S2)c1ccccc1
LABEL CLASS: NO
--
COMPOUND: CCCC1=Nc2cc(C(=O)NCCCN3CCN(c4ccccc4F)CC3)ccc2Sc2ccccc21
LABEL CLASS: NO
--
COMPOUND: O=C(NCc1cccnc1)c1ccc2c(c1)N=C(c1ccc(Cl)c(Cl)c1)c1ccccc1S2 [drawing 669]
LABEL CLASS: YES
--
COMPOUND: O=C(NCc1ccc(Cl)cc1Cl)c1ccc2c(c1)N=C(C1CCCCC1)c1ccccc1S2
LABEL CLASS: YES
--
COMPOUND: O=C(NCc1ccncc1)c1ccc2c(c1)N=C(c1ccc(F)cc1)c1ccccc1S2 [drawing 716]
LABEL CLASS: NO
--
COMPOUND: O=C(NCc1ccc(Cl)cc1Cl)c1ccc2c(c1)N=C(c1ccc(Cl)cc1)c1ccccc1S2 [drawing 901]
LABEL CLASS: YES
--
COMPOUND: O=C(NCCc1ccccn1)c1ccc2c(c1)N=C(c1cccc(Cl)c1)c1ccccc1S2 [drawing 905]
LABEL CLASS: YES
--
COMPOUND: CC(C)NC(=O)c1ccc2c(c1)N=C(c1ccccc1F)c1ccccc1S2
LABEL CLASS: NO
--
COMPOUND: O=C(NNCc1ccccc1)c1ccc2c(c1)N=C(c1cccc(Br)c1)c1ccccc1S2 [drawing 928]
LABEL CLASS: NO
--
COMPOUND: O=C(NN1CCCCCC1)c1ccc2c(c1)N=C(c1ccc(F)cc1)c1ccccc1S2 [drawing 1009]
LABEL CLASS: YES
--
COMPOUND: CONC(=O)c1ccc2c(c1)N=C(c1cccc(Cl)c1)c1ccccc1S2
LABEL CLASS: NO
--
COMPOUND: O=C(NCc1cccc(Cl)c1)c1ccc2c(c1)N=C(N1CCCCC1)c1ccccc1[S+]2[O-] (centres unmarked) [drawing 758]
LABEL CLASS: NO
--
COMPOUND: CC(C)NC(=O)c1ccc2c(c1)N=C(c1ccc(F)cc1)c1ccccc1S2 [drawing 1079]
LABEL CLASS: YES
--
COMPOUND: Cc1csc(CNC(=O)c2ccc3c(c2)N=C(c2ccsc2)c2ccccc2S3)c1 [drawing 563]
LABEL CLASS: YES
--
COMPOUND: O=C(NCc1ccccc1Cl)c1ccc2c(c1)N=C(C1CCCCC1)c1ccccc1S2 [drawing 1059]
LABEL CLASS: YES
--
COMPOUND: COc1ccccc1C1=Nc2cc(C(=O)NCC(C)C)ccc2Sc2ccccc21
LABEL CLASS: NO
--
COMPOUND: O=C(NCCc1cccnc1)c1ccc2c(c1)N=C(c1ccccn1)c1ccccc1S2
LABEL CLASS: NO
--
COMPOUND: O=C(NCc1ccccc1Cl)c1ccc2c(c1)N=C(N1CCCCC1)c1ccccc1S2 [drawing 1013]
LABEL CLASS: YES
--
COMPOUND: O=C(NC1CCCCC1)c1ccc2c(c1)N=C(c1ccc(F)cc1)c1ccccc1S2 [drawing 1065]
LABEL CLASS: YES
--
COMPOUND: NS(=O)(=O)c1ccc(CNC(=O)c2ccc3c(c2)N=C(NCc2ccc(Cl)cc2)c2ccccc2S3)cc1
LABEL CLASS: NO
--
COMPOUND: O=C(NC1CCCCC1)c1ccc2c(c1)N=C(c1ccc(Cl)cc1)c1ccccc1S2 [drawing 844]
LABEL CLASS: NO
--
COMPOUND: O=C(NCc1cccs1)c1ccc2c(c1)N=C(c1ccccc1F)c1ccccc1S2 [drawing 795]
LABEL CLASS: YES
--
COMPOUND: O=C(NCc1ccc(F)cc1)c1ccc2c(c1)N=C(c1ccccc1)c1ccccc1S2 [drawing 745]
LABEL CLASS: YES
--
COMPOUND: Cc1cccc(C2=Nc3cc(C(=O)NCC(C)C)ccc3Sc3ccccc32)n1 [drawing 809]
LABEL CLASS: YES
--
COMPOUND: O=C(NCCc1cccc(Cl)c1)c1ccc2c(c1)N=C(N1CCCCC1)c1ccccc1S2 [drawing 973]
LABEL CLASS: YES
--
COMPOUND: O=C(NCc1ccc(F)cc1)c1ccc2c(c1)N=C(C1CCCCC1)c1ccccc1S2(=O)=O [drawing 917]
LABEL CLASS: YES
--
COMPOUND: CC(C)CNC(=O)c1ccc2c(c1)N=C(c1cccc(Cl)c1)c1ccccc1S2 [drawing 609]
LABEL CLASS: YES
--
COMPOUND: O=C(NCCc1cccc(Cl)c1)c1ccc2c(c1)N=C(c1cccc(Cl)c1)c1ccccc1S2 [drawing 779]
LABEL CLASS: YES
--
COMPOUND: Cc1ccc(N2CCN(C(=O)c3ccc4c(c3)N=C(C3CCCCC3)c3ccccc3S4)CC2)c(C)c1 [drawing 896]
LABEL CLASS: NO
--
COMPOUND: CON(C)C(=O)c1ccc2c(c1)N=C(c1ccc(Cl)s1)c1ccccc1S2
LABEL CLASS: NO
--
COMPOUND: O=C(NN1CCOCC1)c1ccc2c(c1)N=C(c1cccc(F)c1)c1ccccc1S2
LABEL CLASS: NO
--
COMPOUND: CC(C)NC(=O)c1ccc2c(c1)N=C(c1cccc(Cl)c1)c1ccccc1S2 [drawing 921]
LABEL CLASS: YES
